Consider the following variants; for each one, report its protein stability index.
B1: CAMK2B (parent)
chain: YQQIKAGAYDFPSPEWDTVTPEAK

variants of: B1; test: protein stability index of a GFP-peptide fusion (GPS, HEK-293T) (PSI 1-6); higher = more stable; settings: c terminus: a fixed tail appended;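 note: lentivirally expressed fusions sorted by FACS into six bins by GFP to DsRed ratio, PSI derived from sequencing read proportions per bin multiplied by bin number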
Numbers only.

Residue change: E22K
Reading: 2.93

Give protein stability index for each listed item.
1. E22Q
2. S13F

2.67
2.79

This collection of values is drawn from the supplement of paper PMC10567573.
